From various publications: IC50 for human ACC2 (Homo sapiens (Human), UniProt O00763).
parameter: IC50 (nM)

{"compound": "CCOc1ccc(C#Cc2ccc(CC(C)C(=O)NC)cc2)cc1 (stereo not shown)", "result_units": "nM", "IC50": 2700}

1. CC(=O)N[C@@H](C)c1ccc(OC2CCN(c3cccc(Cl)c3)C2)cc1 (stereo partly shown)
2. CC(=O)N[C@@H](C)CCc1ccc(Oc2ccc(OC(C)C)cc2)cc1
3. CC(=O)N[C@@H](C)c1ccc(OC2CCN(c3ccc4c(c3)OC(F)(F)O4)C2)cc1 (stereo partly shown)
4. C[C@H](NC(=O)C(F)F)c1ccc(C2CN(c3ccc4c(c3)OCCO4)C2)cc1
5. CCNC(=O)C(C)c1ccc(C#Cc2ccc(OC)c(OC)c2)cc1 (stereo not shown)
**Q:** In this exercise, place the 5 compounds in ascending sequence of their recorded IC50. Lab note: final answer is the ordered label list.
**A:** 2, 1, 3, 4, 5
(2: 16 nM, 1: 204 nM, 3: 574 nM, 4: 1020 nM, 5: 25700 nM)

A. CC(=O)NC(C)Cc1ccc(C#Cc2cnc(NC(C)C3CC3)nc2)cc1 (stereo not shown)
B. CCNC(=O)C(C)c1ccc(C#Cc2ccc3c(c2)OCC3)cc1 (stereo not shown)
**Q:** Exercise: compare A and B ; which one has the greater IC50? Answer by quoting the chosen item's label.
**A:** B
(B: 500 nM, A: 150 nM)

P. CCCOc1ccc(N2CC[C@@H](Oc3ccc([C@H](C)NC(=O)c4sc(NC(C)=O)nc4C)cc3)C2)nc1
Q. CC(=O)NC(C)Cc1ccc(C#Cc2ccnc(OCC(C)C)n2)cc1 (stereo not shown)
R. CCC(=O)Nc1nc(C)c(C(=O)N[C@@H](C)c2ccc(CN3CCc4cc(OCC5CC5)ccc4C3)cc2)s1
S. CC(=O)N[C@@H](C)c1ccc(O[C@@H]2CCN(c3cccc(N4CCC5(CC5)C4)n3)C2)cc1
**Q:** Arrange these compounds by their IC50, starting with the largest number. Lab note: final answer is the ordered label list.
**A:** Q, S, P, R

* * *

From various publications: IC50 for human ACC2 (Homo sapiens (Human)).
parameter: IC50 (nM)

// solved cases for IC50 follow
{"compound": "CCCNC(=O)C(C)c1ccc(O[C@@H]2CCN(c3nc(N(C)C)ncc3F)C2)cc1 (some centres unmarked)", "system_tested": "human ACC2 (Homo sapiens (Human))", "result_units": "nM", "IC50": 667}
{"compound": "CC(C)n1ncc2c1C(=O)CC1(CCN(C(=O)c3ccc4ccc(NC(C)(C)C)nc4c3)CC1)C2", "system_tested": "human ACC2 (Homo sapiens (Human))", "result_units": "nM", "IC50": 5}
{"compound": "CC(=O)N[C@@H](C)c1ccc(C2CN(c3ncc4nc(-c5ccccc5)oc4n3)C2)cc1", "system_tested": "human ACC2 (Homo sapiens (Human))", "result_units": "nM", "IC50": 340}
{"compound": "CC(=O)NC(C)Cc1ccc(C#Cc2ccc(-c3cnco3)cc2)cc1 (centres unmarked)", "system_tested": "human ACC2 (Homo sapiens (Human))", "result_units": "nM", "IC50": 1600}
{"compound": "CCNC(=O)C(C)c1ccc(C#Cc2ccc(OCc3ccco3)cc2)cc1 (centres unmarked)", "system_tested": "human ACC2 (Homo sapiens (Human))", "result_units": "nM", "IC50": 1500}

1. CC(=O)NC(C)Cc1ccc(C#Cc2cnc(NCc3ccncc3)nc2)cc1 (centres unmarked)
2. CC(=O)N[C@@H](C)c1ccc(O[C@@H]2CCN(c3ccnc(OCc4ccccn4)c3)C2)cc1
3. CCOc1ccc(C#Cc2ccc(C(C)C(=O)NCC3CCOC3)cc2)cc1 (centres unmarked)
**Q:** Arrange these compounds by their IC50, starting with the largest number. Lab note: final answer is the ordered label list.
**A:** 3, 1, 2
